experimentSummary: cell viability loss over short exposure – CellTiter-Glo, 3 h, dry powder, cytotoxicity control for SR-BI HDL uptake inhibitor project, dose response (AID 540246)
studyConditions: ldlA[mSR-BI] CHO cells viability, CellTiter-Glo ATP, 3 h; at 35 µM (top of the series)
activity change, negative = cytotoxicity overview
All answers are understood in %, so give the number only.

Recorded result, O=C(Nc1ccc(-c2nc3cc(NC(=O)c4ccccc4Cl)ccc3o2)cc1)c1ccccc1Cl , activity change, negative = cytotoxicity: 15.2

Recorded result, CCC(=O)N1CCc2cc(-c3csc(NC(=O)c4ccco4)n3)ccc21 , activity change, negative = cytotoxicity: -3.84

Next:
Recorded result, C[C@@H]1CN([C@@H](C)CO)C(=O)c2cc(NC(=O)Cc3cn(C)c4ccccc34)ccc2O[C@@H]1CN(C)S(=O)(=O)c1ccc(F)cc1 , activity change, negative = cytotoxicity: 6.07

Recorded result, C[C@H]1CN([C@@H](C)CO)C(=O)c2cc(NC(=O)Cc3cn(C)c4ccccc34)ccc2O[C@@H]1CN(C)S(=O)(=O)c1ccc(F)cc1 , activity change, negative = cytotoxicity: 6.2
